Taken from patent US20210301025A1.

target: EGFR (form used in the assay not stated) (human, UniProt P00533 25-645, limits assumed); experiment: ELISA, NEM conjugate, 10 nM

binder | outputUnit | binding relative to P54AR4-83v2 parent
P54AR4-83v2 G64C, NEM conjugate (designed binder, not shown: small tags and cut ends, N-ethyl maleimide (NEM) on Cys 64) LPAPKNLVVSEVTEDSARLSWDDPWAFYESFLIQYQESEKVGEAIVLTVPGSERSYDLTGLKPCTEYTVSIYGVHNVYKDTNMRGLPLSAIFTT | ratio | 1.28
P54AR4-83v2 P87C, NEM conjugate (designed binder, not shown: small tags and cut ends, N-ethyl maleimide (NEM) on Cys 87) LPAPKNLVVSEVTEDSARLSWDDPWAFYESFLIQYQESEKVGEAIVLTVPGSERSYDLTGLKPGTEYTVSIYGVHNVYKDTNMRGLCLSAIFTT | ratio | 0.73
